Molecular target: Ba/F3-EGFR wild-type cell line (Homo sapiens, UniProt P00533)
Sequence (P00533 whole entry, change not shown): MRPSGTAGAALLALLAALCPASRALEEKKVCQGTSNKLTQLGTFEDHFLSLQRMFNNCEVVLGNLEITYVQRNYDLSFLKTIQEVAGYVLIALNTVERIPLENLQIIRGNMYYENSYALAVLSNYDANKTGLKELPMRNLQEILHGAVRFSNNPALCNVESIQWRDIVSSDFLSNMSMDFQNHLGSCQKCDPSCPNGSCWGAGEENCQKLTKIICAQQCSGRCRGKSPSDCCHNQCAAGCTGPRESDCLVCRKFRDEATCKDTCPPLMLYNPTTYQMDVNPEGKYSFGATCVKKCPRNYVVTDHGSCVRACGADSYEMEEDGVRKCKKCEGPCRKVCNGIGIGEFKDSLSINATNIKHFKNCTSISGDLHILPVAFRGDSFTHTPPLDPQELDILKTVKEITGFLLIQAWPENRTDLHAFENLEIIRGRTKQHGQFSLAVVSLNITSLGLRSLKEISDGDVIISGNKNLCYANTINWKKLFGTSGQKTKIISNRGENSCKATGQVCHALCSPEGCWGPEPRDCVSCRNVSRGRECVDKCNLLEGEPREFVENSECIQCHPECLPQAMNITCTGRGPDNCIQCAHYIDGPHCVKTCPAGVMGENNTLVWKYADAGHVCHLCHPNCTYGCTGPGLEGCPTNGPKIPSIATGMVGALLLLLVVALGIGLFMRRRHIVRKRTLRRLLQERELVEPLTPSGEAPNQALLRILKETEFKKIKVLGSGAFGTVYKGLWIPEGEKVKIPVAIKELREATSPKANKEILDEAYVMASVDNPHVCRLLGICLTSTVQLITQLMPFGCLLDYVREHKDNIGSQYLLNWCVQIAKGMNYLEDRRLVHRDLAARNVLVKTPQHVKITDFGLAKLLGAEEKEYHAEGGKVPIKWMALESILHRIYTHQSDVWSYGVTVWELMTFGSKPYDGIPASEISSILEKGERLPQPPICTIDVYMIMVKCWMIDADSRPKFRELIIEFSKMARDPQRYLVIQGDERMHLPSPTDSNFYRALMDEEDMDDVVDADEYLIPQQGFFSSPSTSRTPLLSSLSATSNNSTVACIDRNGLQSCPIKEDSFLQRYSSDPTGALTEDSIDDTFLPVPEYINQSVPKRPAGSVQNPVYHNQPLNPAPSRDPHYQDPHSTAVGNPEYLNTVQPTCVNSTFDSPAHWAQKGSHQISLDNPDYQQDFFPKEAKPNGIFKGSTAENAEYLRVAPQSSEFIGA
Test: Ba/F3-EGFR wild-type cell proliferation assay (CellTiter Glo, 72 hours)
Assay type: cell-based
Details: Table 2, read-out: EGFR WT IC50
Exercise: for every item that follows, state its recorded log10(GI50).
Hi team, quick reminder: these entries are log10 of GI50 (nM).

### Prompt Requested read-out: log10(GI50). Entry: CCCc1cc(Nc2ncc(Br)c(Nc3ccc(-c4cnn(C)c4)cc3P(C)(C)=O)n2)c(OC)cc1N1CCC(N2CCN(C)CC2)CC1 [Compound K-043]
### Response 2.10

### Prompt Requested read-out: log10(GI50). Entry: CCc1cc(Nc2ncc(Br)c(Nc3ccc(-n4cc(OC)cn4)cc3P(C)(C)=O)n2)c(OC)cc1N1CCC(N2CCCCC2)CC1 [Compound K-020]
### Response 2.35

### Prompt Requested read-out: log10(GI50). Entry: CCc1cc(Nc2ncc(Br)c(Nc3ccc(-c4ccc(OC)s4)cc3P(C)(C)=O)n2)c(OC)cc1N1CCC(N2CCN(C)CC2)CC1 [Compound K-072]
### Response 2.65

### Prompt Requested read-out: log10(GI50). Entry: CCc1cc(Nc2ncc(Br)c(Nc3ccc(-c4ccc(C)nn4)cc3P(C)(C)=O)n2)c(OC)cc1N1CCC(N2CCN(C)CC2)CC1 [Compound 33]
### Response 2.64

### Prompt Requested read-out: log10(GI50). Entry: COc1cnn(-c2ccc(Nc3nc(Nc4cc(C)c(N5CCN(C6CCCC6)CC5)cc4OC)ncc3Br)c(P(C)(C)=O)c2)c1 [Compound K-089]
### Response 2.60

### Prompt Requested read-out: log10(GI50). Entry: COc1cnn(-c2ccc(Nc3nc(Nc4cc(OC)c(N5CCC(N(C)C)CC5)cc4C)ncc3Br)c(P(C)(C)=O)c2)c1 [Compound K-038]
### Response 2.06

### Prompt Requested read-out: log10(GI50). Entry: COc1cc(N2CCC(N3CCN(C)CC3)CC2)c(C)cc1Nc1ncc(Br)c(Nc2ccc(-c3cnn(C)n3)cc2P(C)(C)=O)n1 [Compound K-008]
### Response 2.23

### Prompt Requested read-out: log10(GI50). Entry: CCc1cc(Nc2ncc(Br)c(Nc3ccc(-c4ncccn4)cc3P(C)(C)=O)n2)c(OC)cc1N1CCC(N2CCN(C)CC2)CC1 [Compound 26]
### Response 2.21

### Prompt Requested read-out: log10(GI50). Entry: CCc1cc(Nc2ncc(Br)c(Nc3ccc(-n4cc(F)cn4)cc3P(C)(C)=O)n2)c(OC)cc1N1CCC(N2CCN(C)CC2)CC1 [Compound 44]
### Response 2.22

### Prompt Requested read-out: log10(GI50). Entry: COc1cc(Nc2ncc(Br)c(Nc3ccc(-c4cnn(C)n4)c(F)c3P(C)(C)=O)n2)c(C)cc1N1CC(C)OC(C)C1 (stereo not drawn) [Compound K-037]
### Response 2.57

### Prompt Requested read-out: log10(GI50). Entry: COc1cnn(-c2ccc(Nc3nc(Nc4cc(-c5cnn(C)c5)c(N5CCN(C(C)=O)CC5)cc4OC)ncc3Br)c(P(C)(C)=O)c2)c1 [Compound K-082]
### Response 3.47

### Prompt Requested read-out: log10(GI50). Entry: C#Cc1ccc(-c2ccc(Nc3nc(Nc4cc(C)c(N5CCC(N6CCN(C)CC6)CC5)cc4OC)ncc3Br)c(P(C)(C)=O)c2)s1 [Compound K-016]
### Response 2.16

### Prompt Requested read-out: log10(GI50). Entry: C#Cc1cnn(-c2ccc(Nc3nc(Nc4cc(CC)c(N5CCC(N6CCN(C)CC6)CC5)cc4OC)ncc3Br)c(P(C)(C)=O)c2)c1 [Compound K-009]
### Response 2.43

### Prompt Requested read-out: log10(GI50). Entry: CCn1cc(-c2cc(Nc3ncc(Br)c(Nc4ccc(-c5cc(C)n(C)n5)cc4P(C)(C)=O)n3)c(OC)cc2N2CCC(N3CCN(C)CC3)CC2)cn1 [Compound K-005]
### Response 2.68

### Prompt Requested read-out: log10(GI50). Entry: CCc1cc(Nc2ncc(Br)c(Nc3ccc(-c4ccccc4)cc3P(C)(C)=O)n2)c(OC)cc1N1CCC(N2CCN(C)CC2)CC1 [Compound 1]
### Response 2.23

### Prompt Requested read-out: log10(GI50). Entry: COc1cc(Nc2ncc(Br)c(Nc3ccc(-c4nccs4)cc3P(C)(C)=O)n2)c(C)cc1N1CCOCC1 [Compound K-024]
### Response 2.24

### Prompt Requested read-out: log10(GI50). Entry: CCc1cc(Nc2ncc(Br)c(Nc3ccc(-c4cc(C)n(C)n4)cc3P(C)(C)=O)n2)c(OC)cc1N1CCC(N2CCN(C)CC2)CC1 [Compound K-066]
### Response 2.02

### Prompt Requested read-out: log10(GI50). Entry: COc1cnn(-c2ccc(Nc3nc(Nc4cc(OC)c(N5CCOCC5)cc4C)ncc3Br)c(P(C)(C)=O)c2)c1 [Compound K-023]
### Response 1.95

The measurements presented in this section are drawn from patent US20220402948A1.
